What pEC50 was measured for each of the following?
Molecular target: Mas-related G-protein coupled receptor member X2 (Homo sapiens, UniProt Q96LB1)
Sequence (Q96LB1 whole entry): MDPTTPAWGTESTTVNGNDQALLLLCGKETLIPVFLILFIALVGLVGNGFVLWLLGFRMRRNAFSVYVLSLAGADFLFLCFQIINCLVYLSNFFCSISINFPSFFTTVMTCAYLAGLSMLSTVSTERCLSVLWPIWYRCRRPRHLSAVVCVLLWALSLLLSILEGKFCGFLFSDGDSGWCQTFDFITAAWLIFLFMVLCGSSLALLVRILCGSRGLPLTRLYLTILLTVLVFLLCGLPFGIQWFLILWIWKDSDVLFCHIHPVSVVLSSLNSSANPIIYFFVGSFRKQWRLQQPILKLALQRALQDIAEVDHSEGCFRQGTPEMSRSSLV
Assay: Intracellular Calcium Mobilization Assay
Details: pH 7.4; 30 °C
Give bare numbers, as −log10 of the molar value.

Some entries whose results are on file:
CN1CC[C@]23CCCC[C@@H]2[C@H]1Cc1ccc(O)cc13
5.41
CN1CC[C@@]2(c3cccc(O)c3)Cc3nc4ccccc4cc3C[C@@H]2C1 [(+)-TAN-67]
6.54
CC(=O)O[C@H]1C=C[C@H]2[C@H]3Cc4ccc(O)c5c4[C@@]2(CCN3C)[C@H]1O5
4.68
COc1ccc2c3c1O[C@H]1[C@@H](OC(C)=O)C=C[C@H]4[C@@H](C2)N(C)CC[C@@]341
4.60
C[C@H]1C2Cc3ccc(O)cc3[C@@]1(C)CCN2
4.89

Could you report pEC50 for every entry in the following list?
1. C[C@@H]1[C@@H]2Cc3ccc(O)cc3[C@@]1(C)CCN2C [(+)-Metazocine]
2. CCC(=O)O[C@](Cc1ccccc1)(c1ccccc1)[C@H](C)CN(C)C
3. COc1ccc2c(c1)[C@@]13CCCC[C@@H]1[C@@H](C2)N(C)CC3
4. COC1=CC=C2[C@H]3Cc4ccc(OC)c5c4[C@@]2(CCN3C)[C@H]1O5

Result block:
[5.03, 4.49, 5.23, 4.12]
